# Tested on: PC3/hPRLR cells
# METHOD_NOTES: Cell viability (cell kill) assay
# Assay type: cell-based, human
# ASSAY_CONTEXT: PC3/PRLR; Table 11; 3 days
# Procedure: PRLR-overexpressing cells, including HEK293, PC3, MCF7 and NCI-N87, were generated to assess the ability of anti-PRLR conjugated antibodies to reduce cell viability. […] Next, the ability of anti-PRLR-DM1 antibody-drug conjugates (i.e., anti-PRLR antibodies conjugated to DM1 via a non-cleavable linker [SMCC]) to reduce cell viability was determined using in vitro cell based assays. […] IC50 values were determined from a four-parameter logistic equation over a 10-point response curve (GraphPad Prism). […]

# MOLECULE, % Kill / %
records = [
    ("H1H6782P-DM1: anti-PRLR antibody H1H6782P conjugated to DM1 through an SMCC linker (conjugate) VH: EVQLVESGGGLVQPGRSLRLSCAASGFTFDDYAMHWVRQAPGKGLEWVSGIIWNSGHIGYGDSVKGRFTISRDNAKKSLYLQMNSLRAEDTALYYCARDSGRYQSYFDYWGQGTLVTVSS VL: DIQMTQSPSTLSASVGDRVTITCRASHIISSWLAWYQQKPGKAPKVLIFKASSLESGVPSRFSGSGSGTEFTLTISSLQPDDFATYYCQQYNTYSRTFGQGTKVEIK", 64),
    ("H1H6960N-DM1 (conjugate) VH: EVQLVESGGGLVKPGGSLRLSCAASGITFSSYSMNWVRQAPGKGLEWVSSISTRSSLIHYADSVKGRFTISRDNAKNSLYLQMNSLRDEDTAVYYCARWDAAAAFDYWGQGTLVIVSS VL: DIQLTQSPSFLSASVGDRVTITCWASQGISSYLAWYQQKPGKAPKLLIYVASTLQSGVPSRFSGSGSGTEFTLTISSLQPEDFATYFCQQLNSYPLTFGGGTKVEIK", 82),
    ("H1H6803P-DM1 (conjugate) VH: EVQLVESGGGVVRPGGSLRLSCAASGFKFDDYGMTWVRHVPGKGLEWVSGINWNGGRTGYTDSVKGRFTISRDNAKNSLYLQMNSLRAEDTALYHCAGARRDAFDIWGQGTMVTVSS VL: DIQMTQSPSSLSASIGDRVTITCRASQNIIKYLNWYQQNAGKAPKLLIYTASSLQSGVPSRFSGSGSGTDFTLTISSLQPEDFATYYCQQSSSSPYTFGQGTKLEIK", 70),
    ("H1H6793P-DM1 (conjugate) VH: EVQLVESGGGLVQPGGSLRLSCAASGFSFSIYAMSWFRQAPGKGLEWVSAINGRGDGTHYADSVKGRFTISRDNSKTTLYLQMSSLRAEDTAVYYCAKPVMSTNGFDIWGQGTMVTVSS VL: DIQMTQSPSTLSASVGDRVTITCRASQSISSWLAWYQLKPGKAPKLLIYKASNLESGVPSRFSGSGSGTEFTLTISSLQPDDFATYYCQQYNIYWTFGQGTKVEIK", 65),
    ("H1H6800P-DM1 (conjugate) VH: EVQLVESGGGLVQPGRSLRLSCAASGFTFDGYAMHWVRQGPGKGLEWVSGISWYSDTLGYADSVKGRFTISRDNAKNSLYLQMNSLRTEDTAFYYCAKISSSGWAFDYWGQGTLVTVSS VL: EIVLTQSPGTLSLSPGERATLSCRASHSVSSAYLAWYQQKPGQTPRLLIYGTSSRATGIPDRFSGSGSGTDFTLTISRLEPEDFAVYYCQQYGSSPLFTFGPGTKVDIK", 68),
    ("H1H6958N2-DM1: anti-PRLR antibody H1H6958N2 conjugated to DM1 through an SMCC linker (conjugate) VH: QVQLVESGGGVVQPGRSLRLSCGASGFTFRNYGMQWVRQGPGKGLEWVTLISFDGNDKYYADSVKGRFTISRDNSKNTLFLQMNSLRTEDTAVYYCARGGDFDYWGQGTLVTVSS VL: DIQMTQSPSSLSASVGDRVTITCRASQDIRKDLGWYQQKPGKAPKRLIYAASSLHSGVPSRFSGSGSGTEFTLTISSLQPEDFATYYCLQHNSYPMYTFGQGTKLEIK", 83),
]
